All figures here come from ChEMBL document CHEMBL4152195.

Tested on: 3T3-L1
Assay: Cytotoxicity against mouse 3T3L1 cells at 50 uM after 24 hrs by sulforhodamine B assay
Assay type: cell-based
Conditions: 3t3-l1, 24 h
Known Activity of a selection of molecules

Worked examples, 4 molecules total:
Fill in the recorded Activity for this molecule, with 3T3-L1 as test system: O=c1c2ccccc2oc2ccccc12
0 to 25%

Fill in the recorded Activity for this molecule, with 3T3-L1 as test system: O=c1c2ccccc2sc2c(O)ccc(Cl)c12
0 to 25%

Fill in the recorded Activity for this molecule, with 3T3-L1 as test system: COC(=O)COc1ccc2c(=O)c3ccc(OCC(=O)OC)cc3oc2c1
0 to 25%

Fill in the recorded Activity for this molecule, with 3T3-L1 as test system: O=c1c2ccccc2oc2cccc(O)c12
0 to 25%

Here is another molecule to look at.
Fill in the recorded Activity for this molecule, with 3T3-L1 as test system: O=C(O)Cc1ccc2c(=O)c3ccccc3oc2c1
0 to 25%
